test system: C. freundii 902; experiment: Minimum inhibitory concentration in vitro, agar dilution method; assay type: cell-based; conditions: Citrobacter freundii, 902
Each item that follows carries a reported MIC.

record-smiles	target	MIC
Cc1cc(SCC2=C(C(=O)[O-])N3C(=O)[C@@H](NC(=O)/C(=N\OCS(=O)(=O)c4ccc(O)c(O)c4)c4csc(N)n4)[C@H]3SC2)n2nc(COC(=O)c3ccc(O)c(O)c3)nc2n1.[Na+]	C. freundii 902	0.12 µg/mL
Cc1cc(SCC2=C(C(=O)[O-])N3C(=O)[C@@H](NC(=O)/C(=N\OCc4ccc(O)c(O)c4)c4csc(N)n4)[C@H]3SC2)n2nc(CS(=O)(=O)c3ccc(O)c(O)c3)nc2n1.[Na+]	C. freundii 902	0.12 µg/mL
Cc1cc(SCC2=C(C(=O)[O-])N3C(=O)[C@@H](NC(=O)/C(=N\OCc4ccc(O)c(O)c4F)c4csc(N)n4)[C@H]3SC2)n2nc(CS(=O)(=O)c3ccc(O)c(O)c3)nc2n1.[Na+]	C. freundii 902	< 0.1 µg/mL
Cc1cc(SCC2=C(C(=O)[O-])N3C(=O)[C@@H](NC(=O)/C(=N\OCS(=O)(=O)c4ccc(O)c(O)c4)c4csc(N)n4)[C@H]3SC2)n2nc(CNS(=O)(=O)c3ccc(O)c(O)c3)nc2n1.[Na+]	C. freundii 902	0.12 µg/mL
